Reference source: paper PMC5540273

tested on: KIT; settings: concentration: 1 μM, replicates: in singlicate; n = 1;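 further: KINOMEscan kinase panel screen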
measured.endpoint: %Inh (%)
# output: bare number, implied unit %

The compound CCCCc1nn2ncccc2c1-c1ccnc(NC2CC2)n1 [GW684374] on KIT: %Inh was 67

The compound Cn1cncc1-c1cc2c(Nc3ccc(OCc4ccccc4)cc3)ncnc2cn1 [GW281179] on KIT: %Inh was 39

The compound Cc1c(Cn2c3ccccc3n3c(=O)cc(N4CCOCC4)nc23)cccc1C(F)(F)F [GSK2306394] on KIT: %Inh was 7

The compound CC[C@@H]1CO[C@H](C(=O)Nc2ccccc2)CN1c1cc(-c2ccc3c(N)n[nH]c3c2)nc(NC)n1 [GSK2376236] on KIT: %Inh was 17

The compound CNCc1ccc2nc(NC(=O)c3ccc(C(C)(C)C)cc3)cn2c1 on KIT: %Inh was 69

The compound O=c1cc(N2CCOCC2)nc2n(Cc3ccccc3F)ccn12 [GSK2297428] on KIT: %Inh was 7

The compound Nc1ncnc2occ(-c3ccc4c(c3)CCN4C(=O)Cc3cc(F)ccc3F)c12 [GSK2645446] on KIT: %Inh was 66

The compound Fc1ccc(-c2nn3cccc(F)c3c2-c2ccncc2)cc1 [GW475620] on KIT: %Inh was 3

The compound Cn1cnc2c(N)ncnc21 [SKF-97623] on KIT: %Inh was 0

The compound Cc1ccc(NC(=O)Nc2ccc(Cl)cc2)cc1-c1ccc(C(=O)Nc2ccncc2)cc1 [GSK1398472] on KIT: %Inh was 99.9

The compound Cc1ccc(NC(=O)c2ccc(Cl)cc2)cc1-c1ccc(C(=O)Nc2ccncc2)cc1 [GSK1398467] on KIT: %Inh was 99.4

The compound Cc1ccc(NC(=O)Nc2ccc(Cl)c(C(F)(F)F)c2)cc1-c1ccc(C(=O)Nc2ccncc2)cc1 [GSK1398470] on KIT: %Inh was 99.5

The compound O=C1NC(=O)C(c2ccc(Cl)cc2)=C1Nc1ccc(O)cc1 [SB-340867] on KIT: %Inh was 0

The compound CS(=O)(=O)CCNCc1nc(-c2ccc3ncnc(Nc4ccc5c(cnn5Cc5ccccc5)c4)c3c2)cs1.Cl.Cl [GW569716] on KIT: %Inh was 6

The compound CC(=O)c1cccc(NC(=O)NC2CCN(c3ccnc(Nc4ccc(F)cc4)n3)C2)c1 (stereo not drawn) [GSK1379710] on KIT: %Inh was 49

The compound COc1cccc(CNC(=O)NC2CCN(c3ccnc(Nc4ccc(F)cc4)n3)C2)c1 (stereo not drawn) [GSK1379723] on KIT: %Inh was 23

The compound CNC(=O)c1ccc(C)c(-n2c(C)cc(OCc3ccc(F)cc3F)c(Br)c2=O)c1 on KIT: %Inh was 0

The compound Cc1ccccc1-c1cc(-c2c[nH]nc2-c2ccccn2)ccn1 [GW680061] on KIT: %Inh was 39

###

system: CIT;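 further: kd values determined as follow-up on hits from a single-replicate KINOMEscan panel screen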
Please respond with reported Kd for every item in the list.
# output: bare number, implied unit nM

Summary for this compound, Fc1ccc(-c2nc[nH]c2-c2ccncc2)cc1 [SB-217360] : Kd is 310

Summary for this compound, Cc1ccc(NC(=O)Nc2ccc(Cl)c(C(F)(F)F)c2)cc1-c1ccc(C(=O)Nc2ccncc2)cc1 [GSK1398470] : Kd is 380

Summary for this compound, Cc1ccc(NC(=O)Nc2ccccc2F)cc1-c1ccc(C(=O)Nc2ccncc2)cc1 [GSK1398477] : Kd is 570

Summary for this compound, CC[C@@H]1CO[C@H](C(=O)Nc2ccccc2)CN1c1cc(-c2ccc3c(N)n[nH]c3c2)nc(NC)n1 [GSK2376236] : Kd is 200

Summary for this compound, CNc1nc(-c2ccc3c(N)n[nH]c3c2)cc(N2C[C@@H](C(=O)Nc3ccccc3)CC[C@H]2C)n1 [GSK2298859] : Kd is 500

Summary for this compound, Fc1ccc(-c2nc3n(c2-c2ccncc2)CCS3)cc1 [GI98581] : Kd is 760

Summary for this compound, Nc1nccc(-c2c(-c3ccc(F)cc3)ncn2C2CCN(Cc3ccccc3)CC2)n1 [SB-219980] : Kd is 130

Summary for this compound, Cc1ccc(NC(=O)Nc2ccc(Cl)cc2)cc1-c1ccc(C(=O)Nc2ccncc2)cc1 [GSK1398472] : Kd is 430
